Each entry below carries its reported Ki.
molecular target: UniProt P56718; test: Rat orexin 1 receptor radioligand binding (competitive, [3H]-SB674042, HEK293 cell preparations); conditions: rOX1 Ki (nm)
EXPERIMENTAL ENDPOINT: Ki (nM)

> print(dat)
                                   molecule  limit.qualifier  numeric.value
1  CCOc1ccc(C)nc1C(=O)N1C2CCC1C(COc1ccc(Br)cn1)C2 (racemic)                =            974
2  Cc1ccc(-c2ncccn2)c(C(=O)N2[C@H]3CC[C@@H]2[C@@H](COc2ccccn2)C3)n1 (single isomer, unassigned)                >          10000
3  Cc1ccc(-n2nccn2)c(C(=O)N2C3CCC2C(Nc2cnc(C(F)(F)F)cn2)C3)n1 (racemic)                =            134
4  O=C(c1ccccc1-n1nccn1)N1C2CCC1C(Nc1ccc(Cl)cn1)C2 (racemic)                =            110

----------
molecular target: human orexin 1 receptor (Homo sapiens (Human), UniProt O43613); test: Human orexin 1 receptor radioligand binding (competitive, [3H]-SB674042, CHO cell preparations); conditions: human orexin 1 receptor, [3H]-SB674042 competition binding; read-out: hOX1 Ki (nm)
Sequence (O43613 whole entry): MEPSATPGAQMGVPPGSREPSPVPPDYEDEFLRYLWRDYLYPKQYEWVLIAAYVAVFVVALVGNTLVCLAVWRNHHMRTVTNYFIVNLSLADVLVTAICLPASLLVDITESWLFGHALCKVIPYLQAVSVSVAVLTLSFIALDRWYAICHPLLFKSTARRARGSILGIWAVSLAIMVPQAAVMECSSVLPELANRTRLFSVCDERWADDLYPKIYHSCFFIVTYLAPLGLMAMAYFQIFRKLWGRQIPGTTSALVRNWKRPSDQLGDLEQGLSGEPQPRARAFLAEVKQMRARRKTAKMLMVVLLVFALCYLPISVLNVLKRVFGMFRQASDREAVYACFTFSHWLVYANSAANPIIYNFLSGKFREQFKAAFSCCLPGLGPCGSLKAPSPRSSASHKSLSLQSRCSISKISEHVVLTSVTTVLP
Classification field. Basis: Ki. Definitions: low interval = under 40 nM, middle interval = from 40 nM up to 200 nM, high interval = 200 nM and over

> print(dat)
                                    compound            label
 1  O=C(c1occc1-c1ccccc1)N1C2CCC1C(COc1ccc(F)cn1)C2 (racemic)    high interval
 2  O=C(c1cc(F)ccc1-n1nccn1)N1C2CCC1C(CNc1nccc(C(F)(F)F)n1)C2 (racemic)    high interval
 3  O=C(c1ccc(OC(F)F)cc1-n1nccn1)N1[C@@H]2CC[C@H]1[C@H](Nc1cnc(C(F)(F)F)cn1)C2  middle interval
 4  Cc1cnn(-c2ccc(C)nc2C(=O)N2C3CCC2C(COc2ccccn2)C3)c1 (racemic)  middle interval
 5  CCOc1ccc2ccccc2c1C(=O)N1C2CCC1C(COc1nc(C)cc(C)n1)C2 (racemic)     low interval
 6  Cc1cc(C)nc(OCC2CC3CCC2N3C(=O)c2ccc(C)nc2-n2nccn2)n1 (racemic)    high interval
 7  Cc1cc(C)nc(OCC2CC3CCC2N3C(=O)c2ccccc2-c2cccs2)n1 (racemic)  middle interval
 8  Cc1nc(C(=O)N2C3CCC2C(COc2ccc(F)cn2)C3)c(-c2ccccc2F)s1 (racemic)     low interval
 9  O=C(c1cc(CO)ccc1-n1nccn1)N1C2CCC1C(COc1ccc(F)cn1)C2 (racemic)     low interval
10  Cc1ccc(C(=O)N2C3CCC2C(COc2ccc(F)cn2)C3)c(-c2ncccn2)c1 (racemic)  middle interval
11  COc1cccc(-n2nccn2)c1C(=O)N1C2CCC1C(COc1ccc(F)cn1)C2 (racemic)     low interval
12  Cc1cc(C)nc(OCC2CC3CCC2N3C(=O)c2c(F)cccc2-c2ncccn2)n1 (racemic)    high interval
13  CCOc1ccc2ccccc2c1C(=O)N1C2CCC1C(COc1ccc(F)cn1)C2 (racemic)     low interval

----------
target: rat orexin 1 receptor (Rattus norvegicus, UniProt P56718); experiment: Rat orexin 1 receptor radioligand binding (competitive, [3H]-SB674042, HEK293 cell preparations); details: rat orexin 1 receptor, [3H]-SB674042 competition binding; read-out: rOX1 Ki (nm)
Each entry below carries its reported log10(Ki).
EXPERIMENTAL ENDPOINT: log10(Ki) (log10 of the value in nM)

> print(dat)
                                    compound  experimental.endpoint  numeric.value
 1  Cc1ccc(C(=O)N2[C@@H]3CC[C@H]2[C@H](Nc2cnc(C(F)(F)F)cn2)C3)c(-n2nccn2)n1              log10(Ki)           2.62
 2  Cc1cccc(C(=O)N2[C@@H]3CC[C@H]2[C@H](Nc2cnc(C(F)(F)F)cn2)C3)c1-c1ncco1              log10(Ki)           0.70
 3  O=C(c1cccc(F)c1-c1ccncc1)N1[C@@H]2CC[C@H]1[C@H](Nc1cnc(C(F)(F)F)cn1)C2              log10(Ki)           2.65
 4  CCOc1ccc2ccccc2c1C(=O)N1C2CCC1C(COc1ccccn1)C2 (racemic)              log10(Ki)           1.04
 5  O=C(c1ccccc1-n1nccn1)N1C2CCC1C(Nc1ccccn1)C2 (racemic)              log10(Ki)           3.23
 6  CCOc1nc(C)ccc1C(=O)N1C2CCC1C(COc1ccccn1)C2 (racemic)              log10(Ki)           3.47
 7  Cc1cccc(OCC2CC3CCC2N3C(=O)c2nc(C)ccc2-n2nccn2)n1 (racemic)              log10(Ki)           1.87
 8  Cn1cc(C(=O)N2C3CCC2C(COc2ccccn2)C3)c(-c2ccccc2)n1 (racemic)              log10(Ki)           2.62
 9  CCOc1ccc(C)nc1C(=O)N1[C@@H]2CC[C@H]1[C@H](Nc1cnc(C(F)(F)F)cn1)C2              log10(Ki)           2.67
10  O=C(c1cccc(F)c1-c1ncccn1)N1C2CCC1C(COc1ccccn1)C2 (racemic)              log10(Ki)           2.54
11  O=C(c1cc(Cl)ccc1-n1nccn1)N1C2CCC1C(COc1ccc(F)cn1)C2 (racemic)              log10(Ki)           1.18
12  Cc1ccc(-c2ncccn2)c(C(=O)N2C3CCC2C(COc2ccc(F)cn2)C3)n1 (racemic)              log10(Ki)           1.26
13  Cc1ccc(C(=O)N2C3CCC2C(COc2ccc(F)cn2)C3)c(-n2nccn2)c1 (racemic)              log10(Ki)           1.89
14  Cc1cc(C)nc(NC2CC3CCC2N3C(=O)c2nc(C)ccc2-c2ncccn2)n1 (racemic)              log10(Ki)           3.04
15  CCOc1ncc(-c2ccccc2)cc1C(=O)N1C2CCC1C(COc1ccccn1)C2 (racemic)              log10(Ki)           3.94
16  Cc1ccc(N(C)C)c(C(=O)N2C3CCC2C(COc2ccccn2)C3)n1 (racemic)              log10(Ki)           2.44
17  Cc1cccc(C(=O)N2[C@@H]3CC[C@H]2[C@H](Nc2ncc(C(F)(F)F)cn2)C3)c1I              log10(Ki)           2.12

----------
Each entry below carries its reported Ki.
target: human orexin 2 receptor (Homo sapiens (Human)); test: Human orexin 2 receptor radioligand binding (competitive, [3H]-EMPA, HEK293 cell preparations); details: human orexin 2 receptor, [3H]-EMPA competition binding; read-out: hOX2 Ki (nm)
Sequence (O43614 whole entry): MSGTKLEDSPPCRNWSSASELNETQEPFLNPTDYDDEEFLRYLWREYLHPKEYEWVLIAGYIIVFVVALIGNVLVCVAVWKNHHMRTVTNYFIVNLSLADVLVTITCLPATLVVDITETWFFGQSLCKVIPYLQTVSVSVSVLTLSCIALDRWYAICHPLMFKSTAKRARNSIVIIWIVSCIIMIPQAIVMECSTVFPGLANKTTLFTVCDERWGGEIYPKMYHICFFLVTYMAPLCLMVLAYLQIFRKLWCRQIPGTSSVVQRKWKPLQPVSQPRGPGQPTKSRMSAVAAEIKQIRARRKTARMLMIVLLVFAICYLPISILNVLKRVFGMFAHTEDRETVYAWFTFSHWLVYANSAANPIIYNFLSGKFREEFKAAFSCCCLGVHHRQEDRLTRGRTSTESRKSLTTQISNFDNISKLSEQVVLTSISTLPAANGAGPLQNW
EXPERIMENTAL ENDPOINT: Ki (nM)

> print(dat)
                                   molecule  experimental.endpoint  numeric.value
1  CCOc1ccc(C)nc1C(=O)N1C2CCC1C(COc1ccc(F)cn1)C2 (racemic)                     Ki           2200
2  COc1ccc(C(=O)N2[C@@H]3CC[C@H]2[C@H](Nc2cnc(C(F)(F)F)cn2)C3)c(-c2ncccn2)c1                     Ki           5600
3  CCOc1ccc2ccccc2c1C(=O)N1C2CCC1C(COc1ccccn1)C2 (racemic)                     Ki             38
4  Cc1ccc(N2CCCC2)c(C(=O)N2C3CCC2C(COc2ccc(F)cn2)C3)n1 (racemic)                     Ki            576

----------
target: human orexin 1 receptor (Homo sapiens (Human), UniProt O43613); assay: Human orexin 1 receptor radioligand binding (competitive, [3H]-SB674042, CHO cell preparations); details: human orexin 1 receptor, [3H]-SB674042 competition binding; read-out: hOX1 Ki (nm)
pKi: −log10 of the molar value.
EXPERIMENTAL ENDPOINT: pKi

> print(dat)
                                   compound  experimental.endpoint  numeric.value
1  Cc1ccc(C(=O)N2[C@@H]3CC[C@H]2[C@H](Nc2cnc(C(F)(F)F)cn2)C3)c(-n2ccnn2)n1                    pKi           6.92
2  O=C(c1cc(F)ccc1-n1nccn1)N1C2CCC1C(COc1cnc3ccccc3n1)C2 (racemic) [Example 166]                    pKi           6.97
3  Cc1ccc(C(=O)N2C3CCC2C(COc2cccc(C(F)(F)F)n2)C3)c(-n2ccnn2)n1 (racemic)                    pKi           5.44
4  Cc1ccc(-c2ncccn2)c(C(=O)N2C3CCC2C(COc2ccc(F)cn2)C3)n1 (racemic)                    pKi           7.62
5  Cc1ccc(C(=O)N2C3CCC2C(COc2cccc(C(F)(F)F)n2)C3)c(-n2nccn2)n1 (racemic)                    pKi           5.41
6  Cc1ccc(C(=O)N2C3CCC2C(COc2cnc4ccccc4n2)C3)c(-n2ccnn2)n1 (racemic)                    pKi           5.20
7  Cc1noc(-c2ccccc2C(=O)N2C3CCC2C(COc2nccc(C(F)(F)F)n2)C3)n1 (racemic)                    pKi           5.85
